# Tested on: Calu-3
# experiment notes: cell viability relative to DMSO; higher = less toxic
# condition details: 72 h; 100 nM
# maps each entry to its cell viability
Just the number please, in %, no unit attached.

Some compounds with recorded cell viability:
| compound | cell viability, % |
| --- | --- |
| CC1=NN(c2ccc(C(=O)O)cc2)C(=O)C1=Cc1ccc(-c2cc(C)c(C)cc2[N+](=O)[O-])o1 [C646] | 89.3 |
| CC(O)Cn1cnc2c1c(=O)n(C)c(=O)n2C (stereo unspecified) [Proxyphylline] | 106 |
| CCCC(C)(COC(N)=O)COC(=O)NC(C)C (stereo unspecified) [CARISOPRODOL] | 93.2 |
| COCC(=O)O[C@]1(CCN(C)CCCc2nc3ccccc3[nH]2)CCc2cc(F)ccc2[C@@H]1C(C)C [mibefradil] | 109 |

// lookup cell viability for COc1cccc2c1C(=O)c1c(O)c3c(c(O)c1C2=O)C[C@@](O)(C(=O)CO)C[C@@H]3O[C@H]1C[C@H](N)[C@H](O[C@@H]2CCCCO2)[C@H](C)O1 [pirarubicin]
86.7

====

# System: HepG2
# experiment notes: cell viability relative to DMSO; higher = less toxic
# condition details: 72 h; 10 nM
# maps each entry to its cell viability
Just the number please, in %, no unit attached.

Some compounds with recorded cell viability:
| compound | tested target | unit string | cell viability |
| --- | --- | --- | --- |
| Sc1ncnc2nc[nH]c12 | HepG2 | % | 115 |
| CCCN[C@@H]1CCc2c(OC)cccc2[C@@H]1C [AJ76-(+)] | HepG2 | % | 100 |
| Nc1ncnc2c1C(=O)N(c1ccc([C@H]3CC[C@H](CC(=O)O)CC3)cc1)CCO2 | HepG2 | % | 101 |
| COc1cc(N2CCC(N3CCN(C)CC3)CC2)ccc1Nc1ncc(Cl)c(Nc2ccccc2P(C)(C)=O)n1 | HepG2 | % | 92.8 |
| Cc1cc(OI)c(C(C)C)cc1-c1cc(C(C)C)c(OI)cc1C [thymol-iodide] | HepG2 | % | 105 |

// lookup cell viability for CN1Cc2c(N)cccc2C(c2ccccc2)C1 (centres undefined)
110

Also CC(C)C[C@H](NC(=O)OCc1ccccc1)C(=O)N[C@@H](C[C@@H]1CCNC1=O)C(O)S(=O)(=O)O (some centres undefined) [GC376 sodium] , if possible.
99.8

Also CC(C)NCC(O)COc1cccc2[nH]c3ccccc3c12 (centres undefined) , if possible.
99

Also CCN(CC)CCNC(=O)COc1ccc(OC)cc1 [mefexamide] , if possible.
73.9

====

# maps each entry to its morphology score
# Tested on: A549-ACE2 infected with SARS-CoV-2
# experiment notes: morphology score (similarity to uninfected cells); higher = more like uninfected cells
# condition details: 0.1 µM; 24 h
Form rule: numeric answer, no unit written next to it.

| compound | test result |
| --- | --- |
| CSc1ccc2c(c1)[C@H](N1CCN(C)CC1)Cc1ccccc1S2 (racemic) [metitepine] | 0.14 |
| C=C1C(=O)[C@]23[C@H](O)[C@H]1CC[C@H]2[C@@]12CO[C@]3(O)[C@@H](O)[C@@H]1C(C)(C)CC[C@@H]2O | -0.14 |
| O=c1cc(N2CCOCC2)oc2c(-c3cccc4c3sc3ccccc34)cccc12 | -0.14 |

Attention now turns to another entry.
// lookup morphology score for `Cc1[nH]c(/C=C2\C(=O)Nc3ccc(F)cc32)c(C)c1C(=O)NCCN1CCCC1`
0.22

====

# System: HepG2
# experiment notes: cell viability relative to DMSO; higher = less toxic
# condition details: 72 h; 1 nM
value kind: cell viability (%)
Just the number please, in %, no unit attached.

Some compounds with recorded cell viability:
| compound | unit string | cell viability |
| --- | --- | --- |
| CO/N=C1\CN(c2nc3c(cc2F)c(=O)c(C(=O)O)cn3C2CC2)CC1CN (stereo not drawn) [gemifloxacin] | % | 105 |
| CN(C)C(=O)Nc1cccc(-c2ccc(N(C)C)cc2)c1 [atglistatin] | % | 98.2 |
| Cc1cc(OI)c(C(C)C)cc1-c1cc(C(C)C)c(OI)cc1C [thymol-iodide] | % | 99.5 |
| CCOc1ccc(NC(C)=O)cc1 [phenacetin] | % | 95.8 |

// lookup cell viability for Cc1sc(C)c2c1CCC=C2c1c[nH]cn1 [TC-G-1000]
111

Also CC(C)c1ccc(NC(=O)c2cccs2)c(-c2nc3ccccc3[nH]c2=O)c1 [ML281] , if possible.
103

Also CC(C)(Cc1ccc2ccccc2c1)NC[C@@H](O)COc1cccc(Cl)c1C#N [NPS-2143] , if possible.
100

Also CSc1ccc2c(c1)[C@H](N1CCN(C)CC1)Cc1ccccc1S2 (racemic) [metitepine] , if possible.
101

Also CC(=O)O[C@@H]1C[C@H]2C(C)(C)C(=O)C=C[C@]2(C)[C@H]2CC[C@@]3(C)[C@H](c4ccoc4)OC(=O)[C@H]4O[C@]43[C@@]21C [gedunin] , if possible.
105

====

# Tested on: HepG2
# experiment notes: cell viability relative to DMSO; higher = less toxic
# condition details: 72 h; 1 nM
# maps each entry to its cell viability
Please answer using a numeric value trailed by its unit.

Some molecules with recorded cell viability:
| molecule | cell viability |
| --- | --- |
| OCc1ccccc1O | 104% |
| CC(C)[N+](C)(CCOC(=O)C1c2ccccc2Oc2ccccc21)C(C)C | 107% |

// lookup cell viability for O=C(O)CCCc1ccccc1 [phenylbutyrate]
111%

Also CCN(CCO)CCCC(C)Nc1ccnc2cc(Cl)ccc12 (centres undefined) [hydroxychloroquine] , if possible.
101%

====

# Tested on: Caco-2
# experiment notes: cell viability relative to DMSO; higher = less toxic
# condition details: 72 h; 1 nM
# maps each entry to its cell viability
Just the number please, in %, no unit attached.

// lookup cell viability for CN1Cc2ccccc2[C@@H]2c3cccc4[nH]cc(c34)C[C@H]21 [CY208-243]
99.1

====

# Test system: A549-ACE2
# experiment notes: drug-induced phospholipidosis relative to tamoxifen; higher = more phospholipidosis
# condition details: 3.33333 µM; 72 h
# maps each entry to its drug-induced phospholipidosis
Just the number please, in %, no unit attached.

Some compounds with recorded drug-induced phospholipidosis:
| compound | drug-induced phospholipidosis [%] |
| --- | --- |
| Fc1ccc(-n2cc(CCCCN3CCC4(CC3)OCc3ccccc34)c3ccccc32)cc1 [siramesine] | 23.8 |
| C[C@@H]1CN(CCCn2c3ccccc3c3ccccc32)C[C@H](C)N1 [rimcazole] | 45.8 |
| COCC(=O)O[C@]1(CCN(C)CCCc2nc3ccccc3[nH]2)CCc2cc(F)ccc2[C@@H]1C(C)C [mibefradil] | 45.4 |
| CC(C)(Cc1ccc2ccccc2c1)NC[C@@H](O)COc1cccc(Cl)c1C#N [NPS-2143] | 94 |

// lookup drug-induced phospholipidosis for N#CC[C@@H](C1CCCC1)n1cc(-c2ncnc3[nH]ccc23)cn1 [ruxolitinib-(S)]
-3.52

Also CC(=O)O[C@@H]1C[C@H]2C(C)(C)C(=O)C=C[C@]2(C)[C@H]2CC[C@@]3(C)[C@H](c4ccoc4)OC(=O)[C@H]4O[C@]43[C@@]21C [gedunin] , if possible.
7.47

Also CSc1ccc2c(c1)[C@H](N1CCN(C)CC1)Cc1ccccc1S2 (racemic) [metitepine] , if possible.
37.4

====

# maps each entry to its cell viability
# Tested on: Calu-3
# experiment notes: cell viability relative to DMSO; higher = less toxic
# condition details: 72 h; 1 nM
Just the number please, in %, no unit attached.

| compound | test result |
| --- | --- |
| CC[C@]12C=CCN3CC[C@@]4(c5cc([C@@]6(C(=O)OC)C[C@@H]7C[C@@H](C(C)(F)F)CN(Cc8c6[nH]c6ccccc86)C7)c(OC)cc5N(C)[C@H]4[C@@](O)(C(=O)OC)[C@@H]1OC(C)=O)[C@@H]32 [Vinflunine Ditartrate] | 108 |

// lookup cell viability for CC(C)(C)C#Cc1cc(N(C(=O)[C@H]2CC[C@H](C)CC2)[C@H]2CC[C@@H](O)CC2)c(C(=O)O)s1 [VX-222]
92.5

Also CN1C(C(=O)Nc2ccccn2)=C(O)c2ccccc2S1(=O)=O [piroxicam] , if possible.
99.8

Also CCNC(=O)[C@@H]1CCCN1C(=O)[C@H](CCCNC(=N)N)NC(=O)[C@H](CC(C)C)NC(=O)[C@@H](CC(C)C)NC(=O)[C@H](Cc1ccc(O)cc1)NC(=O)[C@H](CO)NC(=O)[C@H](Cc1c[nH]c2ccccc12)NC(=O)[C@H](Cc1c[nH]cn1)NC(=O)[C@@H]1CCC(=O)N1 [leuprolide] , if possible.
99.5

Also CC(=O)O[C@@H]1C[C@H]2C(C)(C)C(=O)C=C[C@]2(C)[C@H]2CC[C@@]3(C)[C@H](c4ccoc4)OC(=O)[C@H]4O[C@]43[C@@]21C [gedunin] , if possible.
102

Also C[C@H](Cn1cnc2c(N)ncnc21)OCP(=O)(O)O [tenofovir] , if possible.
98.4
